# TARGET_OR_SYSTEM: Caspase-6 (Homo sapiens)
# Sequence (P55212 whole entry): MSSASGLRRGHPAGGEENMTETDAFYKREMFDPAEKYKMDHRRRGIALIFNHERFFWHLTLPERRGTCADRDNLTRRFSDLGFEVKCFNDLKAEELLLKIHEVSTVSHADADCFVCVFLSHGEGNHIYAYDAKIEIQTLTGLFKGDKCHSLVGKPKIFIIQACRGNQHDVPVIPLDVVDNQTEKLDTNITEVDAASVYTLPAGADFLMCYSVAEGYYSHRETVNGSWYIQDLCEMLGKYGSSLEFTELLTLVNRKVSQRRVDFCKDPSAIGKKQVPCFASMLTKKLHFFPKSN
# ASSAY_OVERVIEW: Inhibition of human recombinant caspase 6 using Ac-VEID-AMC substrate assessed as accumulation of cleaved fluorogenic product
QUANTITY: pIC50
For clarity, pIC50 is expressed as the negative log10 of concentration in mol/L.

Look over these answered cases.
COMPOUND_STRUCTURE | RECORDED_RESULT
COC[C@@H]1CCCN1S(=O)(=O)c1ccc2c(c1)C(=O)C(=O)N2 | 3.30
COC[C@@H]1CCCN1S(=O)(=O)c1cc(Cl)c2c(c1)C(=O)C(=O)N2CCCCF | 3.30
COC[C@@H]1CCCN1S(=O)(=O)c1cc(I)c2c(c1)C(=O)C(=O)N2CCCF | 4.55

Report pIC50 for CCCCN1C(=O)C(=O)c2cc(S(=O)(=O)N3CCC[C@H]3COC)cc(Cl)c21 please. 3.30

Report pIC50 for COC[C@@H]1CCCN1S(=O)(=O)c1cc(I)c2c(c1)C(=O)C(=O)N2CCCCF please. 3.30

Report pIC50 for CCCCN1C(=O)C(=O)c2cc(S(=O)(=O)N3CCC[C@H]3COC)cc(F)c21 please. 4.10

Report pIC50 for COC[C@@H]1CCCN1S(=O)(=O)c1cc(F)c2c(c1)C(=O)C(=O)N2CCCCF please. 4.89

Report pIC50 for COC[C@@H]1CCCN1S(=O)(=O)c1cc(I)c2c(c1)C(=O)C(=O)N2CCCCO please. 3.30

----------
# TARGET_OR_SYSTEM: Caspase-7 (Homo sapiens)
# ASSAY_OVERVIEW: Inhibition of human recombinant caspase 7 using Ac-DEVD-AMC substrate assessed as accumulation of cleaved fluorogenic product
Recorded measurements of IC50, one per entry

COMPOUND_STRUCTURE | IC50
COC[C@@H]1CCCN1S(=O)(=O)c1cc(Br)c2c(c1)C(=O)C(=O)N2CCCCF | 5.95 nM
COC[C@@H]1CCCN1S(=O)(=O)c1cc(I)c2c(c1)C(=O)C(=O)N2 | > 500000 nM
COC[C@@H]1CCCN1S(=O)(=O)c1cc(Br)c2c(c1)C(=O)C(=O)N2 | > 500000 nM
CCCCN1C(=O)C(=O)c2cc(S(=O)(=O)N3CCC[C@H]3COC)cc(Br)c21 | 3.3 nM
COC[C@@H]1CCCN1S(=O)(=O)c1cc(Cl)c2c(c1)C(=O)C(=O)N2 | > 500000 nM

Now consider a different molecule.
Report IC50 for COC[C@@H]1CCCN1S(=O)(=O)c1cc(Br)c2c(c1)C(=O)C(=O)N2CCCF please. 20.1 nM

----------
# TARGET_OR_SYSTEM: UniProt:P55210
# ASSAY_OVERVIEW: Inhibition of human recombinant caspase 7 using Ac-DEVD-AMC substrate assessed as accumulation of cleaved fluorogenic product
Kindly apply the following: met if IC50 is less than 40 nM, not met in every other case.

Example entries begin here.
COMPOUND_STRUCTURE | CLASS_NAME
COC[C@@H]1CCCN1S(=O)(=O)c1cc(F)c2c(c1)C(=O)C(=O)N2 | not met
COC[C@@H]1CCCN1S(=O)(=O)c1cc(Br)c2c(c1)C(=O)C(=O)N2C | not met
CCCCN1C(=O)C(=O)c2cc(S(=O)(=O)N3CCC[C@H]3COC)cc(I)c21 | not met
COC[C@@H]1CCCN1S(=O)(=O)c1cc(Cl)c2c(c1)C(=O)C(=O)N2CCCCF | not met
COC[C@@H]1CCCN1S(=O)(=O)c1cc(Br)c2c(c1)C(=O)C(=O)N2CCCCO | met

Please let me know if CCN1C(=O)C(=O)c2cc(S(=O)(=O)N3CCC[C@H]3COC)cc(I)c21 shows IC50 below 40 nM. met

Please let me know if COC[C@@H]1CCCN1S(=O)(=O)c1cc(I)c2c(c1)C(=O)C(=O)N2CCCCF shows IC50 below 40 nM. not met

Please let me know if CCCCN1C(=O)C(=O)c2cc(S(=O)(=O)N3CCC[C@H]3COC)cc(F)c21 shows IC50 below 40 nM. met

Please let me know if CCCN1C(=O)C(=O)c2cc(S(=O)(=O)N3CCC[C@H]3COC)cc(Br)c21 shows IC50 below 40 nM. not met

----------
Recorded measurements of pIC50, one per entry
# TARGET_OR_SYSTEM: Caspase-3 (Homo sapiens, UniProt P42574)
# Sequence (P42574 29-175 limits assumed): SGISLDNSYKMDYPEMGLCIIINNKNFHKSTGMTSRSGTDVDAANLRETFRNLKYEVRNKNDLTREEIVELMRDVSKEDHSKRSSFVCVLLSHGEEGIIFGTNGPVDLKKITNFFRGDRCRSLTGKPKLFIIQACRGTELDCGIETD
# Sequence (P42574 176-277 limits assumed): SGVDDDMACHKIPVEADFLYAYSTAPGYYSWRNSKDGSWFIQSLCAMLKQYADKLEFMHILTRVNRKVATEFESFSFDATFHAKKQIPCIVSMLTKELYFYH
# ASSAY_OVERVIEW: Inhibition of human recombinant caspase 3 using Ac-DEVD-AMC substrate assessed as accumulation of cleaved fluorogenic product
For clarity, pIC50 is expressed as the negative log10 of concentration in mol/L.

Look over these answered cases.
COMPOUND_STRUCTURE | QUANTITY | RECORDED_RESULT
COC[C@@H]1CCCN1S(=O)(=O)c1cc(Cl)c2c(c1)C(=O)C(=O)N2CCCCF | pIC50 | 8.32
COC[C@@H]1CCCN1S(=O)(=O)c1cc(I)c2c(c1)C(=O)C(=O)N2CCCCF | pIC50 | 7.29
CCCCN1C(=O)C(=O)c2cc(S(=O)(=O)N3CCC[C@H]3COC)cc(Br)c21 | pIC50 | 7.33
COC[C@@H]1CCCN1S(=O)(=O)c1cc(F)c2c(c1)C(=O)C(=O)N2CCCCF | pIC50 | 7.39

Report pIC50 for CCCCN1C(=O)C(=O)c2cc(S(=O)(=O)N3CCC[C@H]3COC)cc(F)c21 please. 8.54

Report pIC50 for CCCN1C(=O)C(=O)c2cc(S(=O)(=O)N3CCC[C@H]3COC)cc(I)c21 please. 6.91

Report pIC50 for CCN1C(=O)C(=O)c2cc(S(=O)(=O)N3CCC[C@H]3COC)cc(I)c21 please. 6.68

Report pIC50 for CCCCN1C(=O)C(=O)c2cc(S(=O)(=O)N3CCC[C@H]3COC)cc(Cl)c21 please. 7.24

----------
# TARGET_OR_SYSTEM: Caspase-1 (Homo sapiens, UniProt P29466)
# Sequence (P29466 120-297 limits assumed): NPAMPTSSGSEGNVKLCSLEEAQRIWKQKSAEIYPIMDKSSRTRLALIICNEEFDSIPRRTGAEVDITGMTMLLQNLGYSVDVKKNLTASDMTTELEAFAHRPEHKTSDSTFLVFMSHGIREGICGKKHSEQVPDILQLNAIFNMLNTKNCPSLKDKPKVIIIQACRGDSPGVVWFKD
# Sequence (P29466 317-404 limits assumed): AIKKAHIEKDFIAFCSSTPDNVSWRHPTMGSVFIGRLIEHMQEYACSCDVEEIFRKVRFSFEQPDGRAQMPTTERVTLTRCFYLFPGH
# ASSAY_OVERVIEW: Inhibition of human recombinant caspase 1 using Ac-YVAD-AMC substrate assessed as accumulation of cleaved fluorogenic product
Recorded measurements of pIC50, one per entry
For clarity, pIC50 is expressed as the negative log10 of concentration in mol/L.

Look over these answered cases.
COMPOUND_STRUCTURE | pIC50
COC[C@@H]1CCCN1S(=O)(=O)c1cc(I)c2c(c1)C(=O)C(=O)N2CCCCO | 3.30
CCCCN1C(=O)C(=O)c2cc(S(=O)(=O)N3CCC[C@H]3COC)cc(Cl)c21 | 3.30
CCCCN1C(=O)C(=O)c2cc(S(=O)(=O)N3CCC[C@H]3COC)cc(F)c21 | 5.00

Report pIC50 for COC[C@@H]1CCCN1S(=O)(=O)c1cc(Cl)c2c(c1)C(=O)C(=O)N2 please. 3.30

Report pIC50 for COC[C@@H]1CCCN1S(=O)(=O)c1cc(Cl)c2c(c1)C(=O)C(=O)N2CCCCF please. 5.59

Report pIC50 for COC[C@@H]1CCCN1S(=O)(=O)c1cc(I)c2c(c1)C(=O)C(=O)N2CCCCF please. 3.30

Report pIC50 for COC[C@@H]1CCCN1S(=O)(=O)c1cc(F)c2c(c1)C(=O)C(=O)N2CCCCF please. 5.13

----------
# TARGET_OR_SYSTEM: Caspase-7 (Homo sapiens)
# Sequence (P55210 whole entry): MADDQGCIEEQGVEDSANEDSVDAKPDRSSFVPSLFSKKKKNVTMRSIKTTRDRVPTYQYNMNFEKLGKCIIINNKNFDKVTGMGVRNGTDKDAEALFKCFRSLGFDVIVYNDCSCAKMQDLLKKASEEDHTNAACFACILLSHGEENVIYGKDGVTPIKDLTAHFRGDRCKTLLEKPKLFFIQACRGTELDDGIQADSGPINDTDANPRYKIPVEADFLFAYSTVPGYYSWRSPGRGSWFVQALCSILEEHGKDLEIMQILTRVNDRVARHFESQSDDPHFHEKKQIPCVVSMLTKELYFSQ
# ASSAY_OVERVIEW: Inhibition of human recombinant caspase 7 using Ac-DEVD-AMC substrate assessed as accumulation of cleaved fluorogenic product
QUANTITY: IC50 (µM)
Kindly provide the numeric value in µM only, without the unit symbol.

Look over these answered cases.
COMPOUND_STRUCTURE | QUANTITY | UNIT_LABEL | RECORDED_RESULT
COC[C@@H]1CCCN1S(=O)(=O)c1cc(I)c2c(c1)C(=O)C(=O)N2C | IC50 | µM | 10.5
CCCN1C(=O)C(=O)c2cc(S(=O)(=O)N3CCC[C@H]3COC)cc(I)c21 | IC50 | µM | 0.0424
CCCCN1C(=O)C(=O)c2cc(S(=O)(=O)N3CCC[C@H]3COC)cc(Cl)c21 | IC50 | µM | 0.263

Now consider a different compound.
Report IC50 for COC[C@@H]1CCCN1S(=O)(=O)c1cc(I)c2c(c1)C(=O)C(=O)N2CCCCO please. 0.279
